- Tested on: T1, mouse ICOS-hFc (homodimeric, bivalent) (mouse; human, UniProt Q9WVS0 21-142)
- T1 construct: also called mICOS-hFc; mouse ICOS-Fc; not shown: human IgG1 Fc (IgG1 backbone)
- T1 sequence: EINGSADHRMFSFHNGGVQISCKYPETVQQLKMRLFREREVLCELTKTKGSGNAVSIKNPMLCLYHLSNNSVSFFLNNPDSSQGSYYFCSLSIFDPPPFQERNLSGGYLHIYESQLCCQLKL
- Assay procedure: BLI
Experimental readout: binding result

- Binder: "16G10 (antibody, V domains shown, Armenian hamster monoclonal tested as IgG; also called hamster anti-ICOS 16G10) VH: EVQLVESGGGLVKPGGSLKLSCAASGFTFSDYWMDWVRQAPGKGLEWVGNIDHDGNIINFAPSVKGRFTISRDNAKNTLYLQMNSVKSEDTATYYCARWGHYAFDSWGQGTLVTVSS VL: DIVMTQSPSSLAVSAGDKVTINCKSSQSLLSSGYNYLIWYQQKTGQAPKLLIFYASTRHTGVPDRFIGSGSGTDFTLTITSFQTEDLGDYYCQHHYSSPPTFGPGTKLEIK"
  Result: "binds"
